Hey, just so you know, these numbers are from patent US20240279215A1.

biological target: human NAMPT (Homo sapiens (Human), UniProt P43490); experiment: NMN fluorescence biochemical assay (human recombinant NAMPT enzyme assay)
Sequence (P43490 whole entry): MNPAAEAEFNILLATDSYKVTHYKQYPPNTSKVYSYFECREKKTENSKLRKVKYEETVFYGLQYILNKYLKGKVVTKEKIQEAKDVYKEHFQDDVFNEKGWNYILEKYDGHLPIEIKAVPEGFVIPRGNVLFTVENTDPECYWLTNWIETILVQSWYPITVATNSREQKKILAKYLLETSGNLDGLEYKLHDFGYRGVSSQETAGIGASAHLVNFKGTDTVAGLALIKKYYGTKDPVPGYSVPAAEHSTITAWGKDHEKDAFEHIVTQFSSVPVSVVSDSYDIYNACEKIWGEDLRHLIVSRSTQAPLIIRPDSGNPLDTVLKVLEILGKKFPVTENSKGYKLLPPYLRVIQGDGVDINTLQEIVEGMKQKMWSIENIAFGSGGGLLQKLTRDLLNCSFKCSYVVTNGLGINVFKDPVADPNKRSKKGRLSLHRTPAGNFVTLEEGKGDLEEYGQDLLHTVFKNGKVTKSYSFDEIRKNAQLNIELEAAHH
# note: boundary value 0.4 µM maps to No; AC1.4 Human below it maps to Yes

The examples below pair each entry with its known result.
# molecule, group
rows = [
    ("Cc1ccc(C(=O)NCc2ccc(NC(=O)OCc3ccc(Cl)cc3)cc2)cn1 [Compound 21]", "Yes"),
    ("CN(C)C(=O)N1CCC2(CC(c3ccc(NC(=O)OCc4cnco4)cc3F)C2)C1 (single isomer, unassigned) [Compound 363]", "Yes"),
    ("O=C(Nc1ccc(CNC(=O)N2CCN(CC(F)F)CC2)cc1)OCc1ccc(Cl)cc1 [Compound 258]", "No"),
]

Ask | Field: below-cutoff. Rule: recorded AC1.4 Human strictly less than 0.4 µM. Subject: C[C@H](NC(=O)c1ocnc1C1CC1)c1ccc(NC(=O)OCc2ccc(Cl)cc2)cc1 [Compound 290]
Reply | No

Ask | Is AC1.4 Human of O=C(Nc1ccc(CNC(=O)C2COC2)cc1)OCc1ccc(Cl)cc1 [Compound 310] strictly below 0.4 µM?
Reply | No

Ask | # check: AC1.4 Human < 0.4 µM for O=C(Nc1ccc(CC2C3CCC2CN(C2COC2)C3)cc1)OCc1cnco1 (centres unmarked) [Compound 425]
Reply | No

---

target: human NAMPT (Homo sapiens (Human)); assay: NMN fluorescence biochemical assay (human recombinant NAMPT enzyme assay)
measure name: pEC50
In plain terms, pEC50 is the concentration in mol/L turned into minus its base-10 logarithm.

Example entries and their recorded answers appear below.
# molecule, pEC50
rows = [
    ("O=C(Cc1cnoc1)NCc1ccc(NC(=O)OCc2ccc(Cl)cc2)cc1", 4.33),
    ("C[C@H]1CCN(C(=O)Cc2ccc(NC(=O)OCc3ccc(Cl)cc3)cc2)C1", 5.25),
    ("C[C@H]1CCCN(C(=O)Cc2ccc(NC(=O)OCc3ccc(Cl)cc3)cc2)C1", 5.02),
    ("Cc1ccc(Cc2ccc(NC(=O)OCc3cnco3)cc2)cn1", 4.39),
    ("CS(=O)(=O)N1CCC[C@H](c2ccc(NC(=O)OCc3cnco3)cc2)C1", 4.41),
]

Ask | Return pEC50 for the following molecule: COC(=O)N1CCC(CCc2ccc(NC(=O)OCc3cnco3)cc2)CC1
Reply | 4.35

Ask | Tell us which pEC50 value is on record for CN(C)C(=O)N1CC2CCC(C1)C2Cc1ccc(NC(=O)OCc2cnco2)cc1 (stereo not shown)
Reply | 4.94

Ask | // Input: Cc1nc(C)c(C(=O)NCc2ccc(NC(=O)OCc3ccc(Cl)cc3)cc2)o1 . Output its pEC50 only.
Reply | 4.98

Ask | Give me measured pEC50, please, for this molecule: CC(C)C(=O)N1CCC(c2ccc(NC(=O)OCc3cnco3)cc2F)CC1
Reply | 4.58

Ask | Give the reported pEC50 for this molecule. O=C(Nc1ccc(Cc2ccncc2)cc1)OCc1ccncn1
Reply | 4.58

---

target: human NAMPT (Homo sapiens (Human), UniProt P43490); assay: NMN fluorescence biochemical assay (human recombinant NAMPT enzyme assay)
Class key for EC50 values: low bracket = under 6 µM, middle bracket = from 6 µM up to 20 µM, high bracket = 20 µM and over

Below, 4 compounds whose answers are already recorded.
# compound, target of assay, group
rows = [
    ("CC(C)c1ccc(C(=O)N[C@@H](C)c2ccc(NC(=O)OCc3ccc(Cl)cc3)cc2)cn1", "human NAMPT (Homo sapiens (Human), UniProt P43490)", "low bracket"),
    ("COc1nc(C)ccc1C(=O)N[C@@H](C)c1ccc(NC(=O)OCc2ccc(Cl)cc2)cc1", "human NAMPT (Homo sapiens (Human), UniProt P43490)", "low bracket"),
    ("O=C(Nc1ccc(CC2CCN(CC(F)(F)F)CC2)cc1)OCc1cncs1", "human NAMPT (Homo sapiens (Human), UniProt P43490)", "middle bracket"),
    ("O=C(Nc1ccc(CC2CCN(C3COC3)CC2)c(F)c1)OCc1cnco1", "human NAMPT (Homo sapiens (Human), UniProt P43490)", "middle bracket"),
]

Ask | Category of CN1CCN(C(=O)Cc2ccc(NC(=O)OCc3ccc(Cl)cc3)cc2)CC1=O , please.
Reply | high bracket

Ask | Which category fits this record: CC(=O)N1CCC(c2ccc(NC(=O)OCc3cnco3)cc2F)CC1
Reply | high bracket

Ask | # bin label for Cc1cc(C(=O)N[C@@H](C)c2ccc(NC(=O)OCc3ccc(Cl)cc3)cc2)n(C)n1
Reply | middle bracket

Ask | Hey, which category is CC(C)N1CC(=O)NC[C@@H]1c1ccc(NC(=O)OCc2ccc(Cl)cc2)cc1 in, do you know?
Reply | high bracket

Ask | Exercise: read the entry O=C(Nc1ccc(C2CCN(C(=O)N3CCC3)CC2)cc1)OCc1cnco1 and state which class it falls under.
Reply | high bracket

Ask | Which bin should I file CC(=O)N1CCC(Cc2ccc(NC(=O)OCc3cnco3)cc2)CC1 under?
Reply | high bracket

Ask | Hello team, could you let me know which band the following compound falls into: CC(=O)N1CCC(Cc2ccc(NC(=O)OCc3cnco3)cc2)CC12CC2 (centres unmarked)
Reply | middle bracket

Ask | Lab log: CC(C)(C)OC(=O)N1CC(OCc2ccc(NC(=O)OCc3ccc(Cl)cc3)cc2)C1 — assign EC50 category
Reply | low bracket

Ask | Into which bin does this compound go? CC(=O)N1CCC(c2ccc(NC(=O)OCc3cnco3)cc2)CC1
Reply | high bracket

---

molecular target: human NAMPT (Homo sapiens (Human)); assay: NMN fluorescence biochemical assay (human recombinant NAMPT enzyme assay)
measure name: EC50 (µM)
I only need the number, in µM, no unit after it.

Record excerpt, results attached:
# compound, readout units, EC50
measured = [
    ("O=C(Nc1ccc(CNC(=O)c2cncnc2)cc1)OCc1ccc(Cl)cc1 [Compound 175]", "µM", 8.92),
    ("O=C1CN(C2CCC2)[C@@H](c2ccc(NC(=O)OCc3ccc(Cl)cc3)cc2)CN1 [Compound 236]", "µM", 50.6),
    ("CCc1ncoc1C(=O)NCc1ccc(NC(=O)OCc2ccc(Cl)cc2)cc1 [Compound 347]", "µM", 34.8),
    ("COC(=O)N1CCC(Cc2ccc(NC(=O)OCc3cnco3)cc2F)CC1 [Compound 450]", "µM", 4.97),
    ("O=C(Nc1ccc(CNC(=O)c2ccc(F)cn2)cc1)OCc1ccc(Cl)cc1 [Compound 305]", "µM", 22.9),
]

Ask | Check the records and state EC50 for C[C@@H]1CCCN(C(=O)Cc2ccc(NC(=O)OCc3ccc(Cl)cc3)cc2)C1 [Compound 256]
Reply | 10.5

Ask | Identify EC50 associated with the compound COc1cc(C(=O)N[C@@H](C)c2ccc(NC(=O)OCc3ccc(Cl)cc3)cc2)n(C)n1 [Compound 95]
Reply | 3.11

Ask | For the compound CCc1ccc(C(=O)NCc2ccc(NC(=O)OCc3ccc(Cl)cc3)cc2)cn1 [Compound 82] , give its measured EC50 value.
Reply | 3.9

---

target: human NAMPT (Homo sapiens (Human), UniProt P43490); assay: NMN fluorescence biochemical assay (human recombinant NAMPT enzyme assay)
measure name: EC50 (µM)
Could you give me the number in µM? Just the number is fine.

# smiles str, EC50 [µM]
records = [
    ("Cc1nn(C)c(C(=O)NCc2ccc(NC(=O)OCc3ccc(Cl)cc3)cc2)c1C", 0.59),
    ("COC(=O)N1CCC(c2ccc(NC(=O)OCc3cnco3)cc2)CC1", 11.5),
    ("CCn1nccc1C(=O)NCc1ccc(NC(=O)OCc2ccc(Cl)cc2)cc1", 4.54),
    ("O=C(Nc1ccc(CC(=O)N2CCCC[C@H]2CO)cc1)OCc1ccc(Cl)cc1", 31.2),
    ("COc1nc(C)ccc1C(=O)NCc1ccc(NC(=O)OCc2ccc(Cl)cc2)cc1", 6.35),
]

Ask | Report EC50, nothing else, for this compound: Cc1ccc(C(=O)NCc2ccc(NC(=O)OCc3ccc(Cl)cc3)cc2)cn1
Reply | 2

Ask | Please report EC50 for the following compound: CN(Cc1ccc(NC(=O)OCc2ccc(Cl)cc2)cc1)C(=O)c1cc[nH]n1
Reply | 2.02

Ask | Annotate the compound O=C(Nc1ccc(CC(=O)N2CCC[C@H](O)C2)cc1)OCc1ccc(Cl)cc1 with its measured EC50.
Reply | 9.75

---

target: human NAMPT (Homo sapiens (Human), UniProt P43490); assay: NMN fluorescence biochemical assay (human recombinant NAMPT enzyme assay)
Rule: measured EC50 below 10 µM gets 1.0; anything equal to or greater than 10 µM gets 0.0.

Ask | hey, is EC50 for O=C(Nc1ccc(Cc2nccs2)cc1)OCc1ccc(Cl)cc1 [Compound 336] lower than 10 µM or not?
Reply | 0.0

Ask | Just wondering, is EC50 of C[C@H](NC(=O)C1(C)COC1)c1ccc(NC(=O)OCc2ccc(Cl)cc2)cc1 [Compound 189] below 10 µM?
Reply | 0.0

Ask | Find out if reported EC50 for C[C@H](NC(=O)c1ccncc1F)c1ccc(NC(=O)OCc2ccc(Cl)cc2)cc1 [Compound 44] is less than 10 µM
Reply | 1.0
